Assay method text: gradient 5% acetonitrile 3 min, to 50% in 2 min, to 85% in 15 min, held 3 min, 100 µL/min
Reported conditions: column: Zorbax Extend-C18 2.1 x 50 mm; eluents: water / acetonitrile, 0.1% formic acid
Observation type: RP-LC retention time (s)

Example results:
INSERT INTO measurements (compound, reported_result) VALUES
  ('CCOc1ccc(N2CC(c3nc4ccccc4n3CCN3CCOCC3)CC2=O)cc1 (stereo not given)', 618),
  ('Cc1ccc(Nc2c(-c3ccccc3O)nc3ncccn23)cc1C', 951),
  ('Clc1ccc(Nc2c(-c3ccc(Cl)cc3)nc3cnccn23)cc1', 1040),
  ('CCOc1cc(-c2ccccc2)nc2ccc(NC(=O)NCC(=O)OC)cc12', 651),
  ('CC(C)c1ccc(-c2noc(N3CCC(C(=O)N4CCCCCC4)CC3)n2)cc1', 1180);

P. CCC(=O)Nc1ccc(CCc2nc3ccc(C(=O)NCCC(C)C)cc3[nH]2)cc1
Q. O=S(=O)(NCc1nc(-c2ccc(-c3csc(C4CC4)n3)cc2)no1)c1ccc(Cl)cc1
Task item: Choose between P and Q : whose measured RP-LC retention time value is numerically larger? Please reply using the label of the selected record.
Reply: Q

A. CC1(C(=O)NCc2ccccc2)Oc2cccnc2NC1=O (stereo not given)
B. Cc1nc2cc(-c3noc(-c4ccc(Cl)cc4Cl)n3)ccc2o1
Task item: Choose between A and B : whose measured RP-LC retention time value is numerically larger? Please reply using the label of the selected record.
Reply: B
(B: 1250 s, A: 638 s)

1. CC1CCN(C(=O)Cn2nc3nc(Nc4ccc(F)cc4)ccn3c2=O)CC1
2. COc1ccc(Cl)cc1NC(=O)N1CCC2(CC1)NC(=O)c1ccccc1O2
Task item: Lowest RP-LC retention time? choose 1 or 2 Please reply using the label of the selected record.
Reply: 1

A. CCOc1ccc(/C=C/C(=O)Nc2nc(-c3ccc4c(c3)NC(=O)C(C)O4)c(C)s2)cc1OC (stereo not given)
B. CCN(CC)S(=O)(=O)c1ccc2c(c1)N(CC(=O)NCc1cccc(C)c1)C(=O)C1CCCCN21 (stereo not given)
Task item: Lowest RP-LC retention time? choose A or B Please reply using the label of the selected record.
Reply: B
(B: 686 s, A: 980 s)

###

Assay method text: gradient 5% acetonitrile 3 min, to 50% in 2 min, to 85% in 15 min, held 3 min, 100 µL/min
Reported conditions: column: Zorbax Extend-C18 2.1 x 50 mm; eluents: water / acetonitrile, 0.1% formic acid
Observation type: RP-LC retention time (s)

Example results:
INSERT INTO results (compound, reported_result) VALUES
  ('CCc1nc(-c2cc(S(=O)(=O)NCC(=O)NC3CCCc4ccccc43)c(C)s2)no1 (stereo not drawn)', 998),
  ('Cc1ccoc1C(=O)N1C[C@@H](CO)[C@H](c2nc(C3CC3)no2)C1', 688),
  ('C=CCN1CC[C@]23CCCCC2[C@H]1Cc1ccc(O)cc13 (stereo partly drawn)', 691);

1. CC12CC(NC(=O)N1c1cccc(C(=O)Nc3ccc4c(c3)OCCO4)c1)c1ccccc1O2 (stereo not drawn)
2. COc1cccc(C(O)CN2CCN(C3CCCCC3)CC2)c1 (stereo not drawn)
3. Cc1ccc(C)c(N2CCN(S(=O)(=O)c3cc(-c4cnn5c(C)cc(C)nc45)ccc3C)CC2)c1
Task item: Order field: RP-LC retention time | Direction: descending (largest first) Record the ranking as a list of labels in the requested order.
Reply: 3, 1, 2

P. COc1ccc(-c2nnc(-c3ccc(C)c(S(=O)(=O)NC(C)(C)CO)c3)o2)cc1OC
Q. Cc1cccc(-c2noc(Cc3nnc(-c4cccc(Br)c4)o3)n2)c1
Task item: Choose between P and Q : whose measured RP-LC retention time value is numerically larger? Please reply using the label of the selected record.
Reply: Q
(Q: 1150 s, P: 749 s)

P. CCN1CCc2ncnc(SCC(=O)Nc3ccc(Cl)cc3C(F)(F)F)c2C1
Q. O=C(c1cc(-c2ccco2)on1)N1CCC(Oc2nc3ccccc3s2)CC1
Task item: Lowest RP-LC retention time? choose P or Q Please reply using the label of the selected record.
Reply: P
(P: 597 s, Q: 1030 s)
